// data source = patent US20050261332A1

# GHS-R (Homo sapiens): Ki values follow

INSERT INTO measurements (molecule, measured_property, result) VALUES
  ('CCN(CC)CCCS(=O)(=O)N[C@H](COCc1ccccc1)C(=O)NCc1ccc(-c2ccccc2CN)cc1 [Compound 213]', 'Ki', '100 to 1000 nM'),
  ('CCN(CC)CCCS(=O)(=O)N[C@H](COCc1ccccc1)C(=O)NCc1ccc(-c2ccccc2-c2nn[nH]n2)cc1 [Compound 156]', 'Ki', '100 to 1000 nM'),
  ('CCN(CC)CCCS(=O)(=O)N[C@H](COCc1ccccc1)C(=O)NCc1ccc(-c2ccccc2CNC(=O)NC)cc1 [Compound 214]', 'Ki', '100 to 1000 nM'),
  ('CCN(CC)CCS(=O)(=O)N[C@H](CCc1ccccc1)C(=O)c1ccc(-c2ccccc2C(N)=O)cc1 [Compound 218]', 'Ki', '> 1000 nM'),
  ('CN(C)CCCS(=O)(=O)N[C@H](COCc1ccccc1)C(=O)N1CCC2(CC1)CN(S(C)(=O)=O)c1ccccc12 [Compound 149]', 'Ki', '100 to 1000 nM');

Q: Enter reported Ki observed with GHS-R (Homo sapiens) for CC(C)NCCS(=O)(=O)N[C@H](COCc1ccccc1)C(=O)N1CCC2(CC1)CN(S(C)(=O)=O)c1ccccc12 [Compound 140]
Ans: > 1000 nM

Q: Enter reported Ki observed with GHS-R (Homo sapiens) for CN(C)CCS(=O)(=O)N[C@H](COCc1ccccc1)C(=O)N1CCC2(CC1)CN(S(C)(=O)=O)c1ccccc12 [Compound 128]
Ans: 100 to 1000 nM

====

SUBJECT_OF_TEST: GHS-R (Homo sapiens, UniProt Q92847)
Construct: expressed in transfected cells; host or cells: COS-7 cells
Sequence (Q92847 whole entry, species assumed): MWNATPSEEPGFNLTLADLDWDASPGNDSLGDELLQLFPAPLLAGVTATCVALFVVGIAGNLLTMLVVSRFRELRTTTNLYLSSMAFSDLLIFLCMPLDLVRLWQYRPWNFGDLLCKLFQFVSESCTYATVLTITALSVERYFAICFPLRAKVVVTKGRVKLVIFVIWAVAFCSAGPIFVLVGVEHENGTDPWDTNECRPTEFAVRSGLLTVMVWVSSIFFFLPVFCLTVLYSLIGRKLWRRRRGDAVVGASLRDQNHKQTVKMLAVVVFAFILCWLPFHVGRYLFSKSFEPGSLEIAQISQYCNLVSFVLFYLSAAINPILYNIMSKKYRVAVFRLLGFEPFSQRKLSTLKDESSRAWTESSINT
EXPERIMENT_SUMMARY: GHS-R competition binding assay (Ki of GHS-R antagonizing compounds)
MEASURED_PROPERTY: Ki

Q: Entry CCN(CC)CCCS(=O)(=O)N[C@H](CCc1ccccc1)C(=O)NCc1ccc(-c2ccccc2CNC(=O)NCCO)cc1 : reported Ki = ?
Ans: < 0.1 µM

====

SUBJECT_OF_TEST: GHS-R (Homo sapiens)
pKi: −log10 of the molar value.
MEASURED_PROPERTY: pKi

Here is how some compounds turned out for pKi.
INSERT INTO measurements (compound, result) VALUES
  ('CCN(CC)CCS(=O)(=O)N[C@@H](COCc1ccccc1)C(=O)N1CCC2(CC1)CN(S(C)(=O)=O)c1ccccc12 [Compound 199]', '> 7.00'),
  ('CS(=O)(=O)N1CC2(CCN(C(=O)[C@@H](COCc3ccccc3)NS(=O)(=O)CCN3CCOCC3)CC2)c2ccccc21 [Compound 138]', '< 6.00'),
  ('CS(=O)(=O)N1CC2(CCN(C(=O)[C@@H](COCc3ccccc3)NS(=O)(=O)CCCCl)CC2)c2ccccc21 [Compound 146]', '> 7.00'),
  ('CCN(CC)CCCS(=O)(=O)N[C@H](COCc1ccccc1)C(=O)N1CCC2(C=Cc3ccccc32)CC1 [Compound 165]', '> 7.00'),
  ('CCN(CC)CCCS(=O)(=O)N[C@H](COCc1ccccc1)C(=O)N1CCC2(CC1)CN(S(C)(=O)=O)c1ccccc12 [Compound 148]', '6.00 to 7.00');

Q: Enter reported pKi observed with GHS-R (Homo sapiens) for CCN(CC)CCCS(=O)(=O)N[C@H](CCc1ccccc1)C(=O)N1CCC2(CC1)CN(S(C)(=O)=O)c1ccccc12 [Compound 163]
Ans: > 7.00

Q: Enter reported pKi observed with GHS-R (Homo sapiens) for CCN(CC)CCCS(=O)(=O)N[C@H](CCc1ccccc1)C(=O)c1ccc(-c2ccccc2CNC(=O)NCCO)cc1 [Compound 198]
Ans: > 7.00

Q: Enter reported pKi observed with GHS-R (Homo sapiens) for CCN(CC)CCCS(=O)(=O)N[C@H](COCc1ccccc1)C(=O)c1ccc(-c2ccccc2C(N)=O)cc1 [Compound 177]
Ans: 6.00 to 7.00

Q: Enter reported pKi observed with GHS-R (Homo sapiens) for CCN(CC)CCCS(=O)(=O)N[C@H](COCc1ccccc1)C(=O)c1ccc(-c2ccccc2COC(=O)NC)cc1 [Compound 219]
Ans: 6.00 to 7.00

Q: Enter reported pKi observed with GHS-R (Homo sapiens) for CCNC(=O)NCc1ccccc1-c1ccc(C(=O)[C@@H](CCc2ccccc2)NS(=O)(=O)CCCN(CC)CC)cc1 [Compound 197]
Ans: > 7.00

Q: Enter reported pKi observed with GHS-R (Homo sapiens) for CCN(CC)CCCS(=O)(=O)N[C@H](CCc1ccccc1)C(=O)c1ccc(-c2ccccc2C(=O)O)cc1 [Compound 183]
Ans: 6.00 to 7.00

Q: Enter reported pKi observed with GHS-R (Homo sapiens) for CCN(CC)CCCS(=O)(=O)N[C@H](COCc1ccccc1)C(=O)c1ccc(-c2ccccc2C#N)cc1 [Compound 178]
Ans: 6.00 to 7.00

Q: Enter reported pKi observed with GHS-R (Homo sapiens) for CC(C)(C)NCCCS(=O)(=O)N[C@H](COCc1ccccc1)C(=O)N1CCC2(CC1)CN(S(C)(=O)=O)c1ccccc12 [Compound 143]
Ans: 6.00 to 7.00

Q: Enter reported pKi observed with GHS-R (Homo sapiens) for CS(=O)(=O)N1CC2(CCN(C(=O)[C@@H](COCc3ccccc3)NS(=O)(=O)CCCN3CCCC3)CC2)c2ccccc21 [Compound 152]
Ans: > 7.00

Q: Enter reported pKi observed with GHS-R (Homo sapiens) for CCN(CC)CCS(=O)(=O)N[C@H](CCc1ccccc1)C(=O)c1ccc(-c2ccccc2COC(=O)NC)cc1 [Compound 215]
Ans: < 6.00

Q: Enter reported pKi observed with GHS-R (Homo sapiens) for CS(=O)(=O)N1CC2(CCN(C(=O)[C@@H](COCc3ccccc3)NS(=O)(=O)CCCNC3CC3)CC2)c2ccccc21 [Compound 150]
Ans: < 6.00

Q: Enter reported pKi observed with GHS-R (Homo sapiens) for CS(=O)(=O)N1CC2(CCN(C(=O)[C@@H](COCc3ccccc3)NS(=O)(=O)CCCN3CCOCC3)CC2)c2ccccc21 [Compound 142]
Ans: < 6.00

Q: Enter reported pKi observed with GHS-R (Homo sapiens) for CS(=O)(=O)N1CC2(CCN(C(=O)[C@@H](COCc3ccccc3)NS(=O)(=O)CCN3CCCC3)CC2)c2ccccc21 [Compound 136]
Ans: 6.00 to 7.00
